- System: M14
- assay_remarks: NCI tumour cell line growth inhibition, 48 h
Calls of active or inactive are those of the source. Rule as the data show it: active = GI50 up to about 1.1 µM and inactive = higher.
Measured GI50 accompanies every entry in the list below.

Sample records with GI50:
O=C(/C=C\c1ccc([N+](=O)[O-])cc1)c1ccccc(=O)c1O 1.29 µM (inactive)
Nc1nc(Cl)c2ncn(Cc3ccc(CCl)cc3)c2n1 14 µM (inactive)

Q: Name the recorded GI50 for "C/C(=N\N(C)C)c1sc(-n2nc(-c3ccccc3)cc2-c2ccccc2)nc1C" .
Ans: > 100 µM (inactive)

====

- Tested on: SK-OV-3
- assay_remarks: NCI tumour cell line growth inhibition, 48 h
Calls of active or inactive are those of the source. Rule as the data show it: active = GI50 up to about 1.1 µM and inactive = higher.
quantity: GI50

molecule	reported_result
O=C(O)C(CS)Nc1c2ccccc2nc2ccccc12 (stereo unspecified)	> 100 µM (inactive)
Cn1c(=O)sc2cc(C(=S)N3CCOCC3)ccc21	> 100 µM (inactive)
CC(C)(C)c1ccc2c(c1)S(=O)(=O)Nc1cccc(c1)NS(=O)(=O)c1cc(C(C)(C)C)ccc1OCCOCCO2	> 100 µM (inactive)
COC(=O)C(Cc1nc2ccccc2nc1O)C(=O)C(=O)Nc1ccc(F)cc1 (stereo unspecified)	> 100 µM (inactive)
COC(=O)c1ccc(C)cc1C1CN=NC12Cc1c(C)cccc1C2=O (stereo unspecified)	94.8 µM (inactive)

Q: Request - read-out GI50 | tested on SK-OV-3 | molecule COc1cc(C2SCC(=O)N2c2ccc(NC(=O)c3ccc(N4C(=O)CSC4c4cc(OC)c(OC)c(OC)c4)cc3)cc2)cc(OC)c1OC (stereo unspecified)
Ans: > 100 µM (inactive)

Q: Record lookup: for SK-OV-3, what GI50 belongs to "Oc1cc(-c2ccc(F)cc2)nc2ncccc12" ?
Ans: 30.3 µM (inactive)

Q: Enter reported GI50 observed with SK-OV-3 for "NS(=O)(=O)c1ccc(/N=N/c2cccnc2O)cc1"
Ans: > 100 µM (inactive)

Q: // lookup GI50 | system=SK-OV-3 | key= "C#CCn1c(=O)[nH]c(=O)c2cccnc21"
Ans: > 100 µM (inactive)

Q: Fill in the recorded GI50 for this molecule, with SK-OV-3 as test system: CCOC(=O)C(/C(=N\NC(=O)OC)C(=O)Nc1cc(OC)ccc1OC)c1cnc2ccccc2n1 (stereo unspecified)
Ans: > 100 µM (inactive)

Q: Param readout = GI50; param system = SK-OV-3; param query = CC(=O)n1cc(CC(C)O)c(=O)[nH]c1=O (stereo unspecified) ; response: value
Ans: > 100 µM (inactive)
